# TESTED_SYSTEM: Sut1 (UniProt P53032)
# Sequence: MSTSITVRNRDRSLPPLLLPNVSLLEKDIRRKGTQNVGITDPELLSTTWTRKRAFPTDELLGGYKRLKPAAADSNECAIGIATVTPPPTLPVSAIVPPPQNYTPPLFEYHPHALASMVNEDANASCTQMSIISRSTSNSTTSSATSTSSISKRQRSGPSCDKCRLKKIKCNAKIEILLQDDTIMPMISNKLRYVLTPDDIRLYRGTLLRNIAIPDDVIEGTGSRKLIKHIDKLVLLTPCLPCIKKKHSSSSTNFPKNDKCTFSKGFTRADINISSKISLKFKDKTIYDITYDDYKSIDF
# PROTOCOL_DESCRIPTION: PBM E-score (8-mer binding enrichment) (E-score (-0.5 to 0.5)); higher = stronger / more preferred TF binding
# CONDITION_SUMMARY: protein concentration: 200 nM; construct: GST-full length
In all, about 33,000 sequences were measured (“E-score (-0.5 to 0.5)”: median about -0.017, highest 2% from about 0.3 on). The full list was thinned out, with the highest values kept by preference.
Each entry below carries its reported PBM E-score.
Write the number on its own, no unit after it.

Use these answered entries as a reference point.
{"columns": ["RESIDUE_SEQUENCE", "PBM E-score"],
 "data": [
  ["CCTCCGAC", 0.0212],
  ["CAGCTCCC", -0.181],
  ["CTGGTTTA", -0.0882],
  ["CTGCCAAA", -0.0297],
  ["GTAATTCA", 0.182],
  ["ATAATTTA", 0.337]
]}

(Q) # lookup: PBM E-score of AAAATGAA
(A) 0.0412

(Q) # lookup: PBM E-score of AAAATGAT
(A) 0.342

(Q) # lookup: PBM E-score of AACAATAA
(A) 0.192

(Q) # lookup: PBM E-score of TGCCTACA
(A) -0.15

(Q) # lookup: PBM E-score of AAAAAGTA
(A) 0.125

(Q) # lookup: PBM E-score of GGGACTAA
(A) -0.0778

(Q) # lookup: PBM E-score of CTCATTAA
(A) 0.119

(Q) # lookup: PBM E-score of AGACCGCA
(A) -0.0648

(Q) # lookup: PBM E-score of ATCATTAA
(A) 0.305

(Q) # lookup: PBM E-score of ATTATAAG
(A) 0.193

(Q) # lookup: PBM E-score of AGCCCATA
(A) -0.137

(Q) # lookup: PBM E-score of GACTTATC
(A) -0.0236

(Q) # lookup: PBM E-score of GCTACTCC
(A) 0.3

(Q) # lookup: PBM E-score of TACTTATA
(A) 0.151

---

# TESTED_SYSTEM: Sut1 (UniProt P53032)
# Sequence: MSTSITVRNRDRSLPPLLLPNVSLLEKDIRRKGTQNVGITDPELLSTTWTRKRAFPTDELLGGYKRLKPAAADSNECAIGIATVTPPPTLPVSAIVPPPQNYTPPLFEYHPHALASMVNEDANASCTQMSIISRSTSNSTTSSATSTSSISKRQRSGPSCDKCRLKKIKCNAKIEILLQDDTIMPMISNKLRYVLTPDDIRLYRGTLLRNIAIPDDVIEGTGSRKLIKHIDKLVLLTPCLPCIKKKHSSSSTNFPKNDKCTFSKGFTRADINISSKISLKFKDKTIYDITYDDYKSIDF
# PROTOCOL_DESCRIPTION: PBM E-score (8-mer binding enrichment) (E-score (-0.5 to 0.5)); higher = stronger / more preferred TF binding
# CONDITION_SUMMARY: protein concentration: 200 nM; construct: GST-full length
The full ranking holds about 33,000 sequences; the median of “E-score (-0.5 to 0.5)” is about -0.017, and the highest 2% start at about 0.3. The sample holds the highest values, similar sequences and a random draw of the others, so the mix is not that of the screen.
ASSAY_ENDPOINT: PBM E-score

{"columns": ["RESIDUE_SEQUENCE", "ASSAY_ENDPOINT", "VALUE"],
 "data": [
  ["AGGAGAAC", "PBM E-score", -0.0513],
  ["TGGAGAAA", "PBM E-score", -0.00929],
  ["CGGAGAAC", "PBM E-score", 0.33]
]}

(Q) Lab note: need PBM E-score for CGGAGCCG on Sut1 (UniProt P53032), anyone have it?
(A) 0.338

(Q) Lab note: need PBM E-score for AGTAATAG on Sut1 (UniProt P53032), anyone have it?
(A) 0.063

Provenance of the data: the supplement of paper PMC3334620
